PARTICULARS: in acetone, 303.15 K

{"MOLECULAR STRING": "CC(C)C(=O)Nc1ccc([N+](=O)[O-])c(C(F)(F)F)c1", "solubility (mole fraction)": 0.223}

---

PARTICULARS: in 2-ethoxyethanol, 293.15 K

{"MOLECULAR STRING": "CC(C)C(=O)Nc1ccc([N+](=O)[O-])c(C(F)(F)F)c1", "solubility (mole fraction)": 0.164}

---

PARTICULARS: in ethylene glycol, 313.15 K
PROPERTY NAME: solubility (mole fraction)

{"MOLECULAR STRING": "CC(C)C(=O)Nc1ccc([N+](=O)[O-])c(C(F)(F)F)c1", "PROPERTY NAME": "solubility (mole fraction)", "OBSERVED": 0.00491}
